Test system: Vero Cells
METHOD NOTES: Cytotoxicity, Vero cells
Type: cell-based
STATED CONDITIONS: Table 3
MEASURED QUANTITY: TC50 Vero Cells

Return reported TC50 Vero Cells; argument: "C[n+]1cc2c(c3ccc(C(F)(F)F)cc3n2CCCCCC2CCCCC2)c2ccccc21.[I-]"
>10 µg/mL

Value lookup for TC50 Vero Cells; key = O=C(O)c1cn(C2CC2)c2cc(N3CCNCC3)c(F)cc2c1=O [Cipro, Ciprofloxacin, reference compound]
>10 µg/mL

Recorded TC50 Vero Cells for "C[n+]1cc2c(c3ccccc3n2CCCCCC2CCCCC2)c2ccccc21.[I-]" , please?
>10 µg/mL

Which TC50 Vero Cells is listed for C[C@@H]1[C@H](O)[C@@H](C)/C=C/C=C/C=C/C=C/C=C/C=C/C=C/[C@H](O[C@@H]2O[C@H](C)[C@@H](O)[C@H](N)[C@@H]2O)C[C@@H]2O[C@](O)(C[C@@H](O)C[C@@H](O)[C@H](O)CC[C@@H](O)C[C@@H](O)CC(=O)O[C@H]1C)C[C@H](O)[C@H]2C(=O)O [Amph B, Amphotericin B, reference compound] ?
6.5 µg/mL

I would be grateful if you could share the reported TC50 Vero Cells for "C[n+]1cc2c(c3cc(Cl)ccc3n2CCCCCC2CCCCC2)c2ccccc21.[I-]" .
>10 µg/mL

For the compound "Clc1ccc2c(c1)[nH]c1c[n+](CCCCCC3CCCCC3)c3ccccc3c12.[I-]" , what TC50 Vero Cells is on record?
9.3 µg/mL

Any idea what TC50 Vero Cells was measured for "C[n+]1cc2c(c3ccc(Cl)cc3n2CCCCCC2CCCCC2)c2ccccc21.[I-]" ?
>10 µg/mL

Endpoint output: TC50 Vero Cells of "FC(F)(F)c1ccc2[nH]c3c[n+](CCCCCC4CCCCC4)c4ccccc4c3c2c1.[I-]" . Value?
10.5 µg/mL

Form field: reported TC50 Vero Cells of "C[n+]1cc2c(c3cc(C(F)(F)F)ccc3n2CCCCCC2CCCCC2)c2ccccc21.[I-]"
>10 µg/mL

Just for reference, patent US8288410B2 is where these values come from.
